Answer each item with its documented Solubility (mg/mL) H2O.
# Procedure details: Solubility experiment
# Assay type: physicochemical
# Condition summary: water, room temperature
Unit mg/mL implied. Number only.

Which Solubility (mg/mL) H2O value belongs to Cc1cc(N2CCN(Cc3cc(F)c(C(=O)NS(=O)(=O)C4CC4)cc3Cl)CC2)ccc1Cl [crystal form D] ? 0.005

Query Cc1cc(N2CCN(Cc3cc(F)c(C(=O)NS(=O)(=O)C4CC4)cc3Cl)CC2)ccc1Cl [crystal form A] next 0.005

---

# Procedure details: Stability experiment (storage of crystal forms, HPLC)
# Format: physicochemical
# Condition summary: 60° C. 21 d
Measured property: RRT (%) 1.05
Unit % implied. Number only.

Which RRT (%) 1.05 value belongs to Cc1cc(N2CCN(Cc3cc(F)c(C(=O)NS(=O)(=O)C4CC4)cc3Cl)CC2)ccc1Cl [crystal form F] ? 0.03

Query Cc1cc(N2CCN(Cc3cc(F)c(C(=O)NS(=O)(=O)C4CC4)cc3Cl)CC2)ccc1Cl [crystal form E-3] next 0.04

Query Cc1cc(N2CCN(Cc3cc(F)c(C(=O)NS(=O)(=O)C4CC4)cc3Cl)CC2)ccc1Cl [crystal form D] next 0.03

Query Cc1cc(N2CCN(Cc3cc(F)c(C(=O)NS(=O)(=O)C4CC4)cc3Cl)CC2)ccc1Cl [crystal form A] next 0.03

---

# Procedure details: Stability experiment (storage of crystal forms, HPLC)
# Type: physicochemical
# Condition summary: 5° C. 0 d
# Experimental: High performance liquid chromatography spectrum was acquired on an Agilent 1260 HPLC, the specific instrument and test parameters are shown in the table 18 below. Another set of samples were sealed at 5° C. and kept as a control at the same time. […]
Measured property: RRT (%) 1.05
Unit % implied. Number only.

Which RRT (%) 1.05 value belongs to Cc1cc(N2CCN(Cc3cc(F)c(C(=O)NS(=O)(=O)C4CC4)cc3Cl)CC2)ccc1Cl [crystal form A] ? 0.04

Query Cc1cc(N2CCN(Cc3cc(F)c(C(=O)NS(=O)(=O)C4CC4)cc3Cl)CC2)ccc1Cl [crystal form F] next 0.03

Query Cc1cc(N2CCN(Cc3cc(F)c(C(=O)NS(=O)(=O)C4CC4)cc3Cl)CC2)ccc1Cl [crystal form D] next 0.03

Query Cc1cc(N2CCN(Cc3cc(F)c(C(=O)NS(=O)(=O)C4CC4)cc3Cl)CC2)ccc1Cl [crystal form E-3] next 0.06

---

# Procedure details: Stability experiment (storage of crystal forms, HPLC)
# Format: physicochemical
# Condition summary: 60° C. 7 d
Measured property: RRT (%) 1.00
Unit % implied. Number only.

Which RRT (%) 1.00 value belongs to Cc1cc(N2CCN(Cc3cc(F)c(C(=O)NS(=O)(=O)C4CC4)cc3Cl)CC2)ccc1Cl [crystal form A] ? 99.84

Query Cc1cc(N2CCN(Cc3cc(F)c(C(=O)NS(=O)(=O)C4CC4)cc3Cl)CC2)ccc1Cl [crystal form D] next 99.90

Query Cc1cc(N2CCN(Cc3cc(F)c(C(=O)NS(=O)(=O)C4CC4)cc3Cl)CC2)ccc1Cl [crystal form F] next 99.87

Query Cc1cc(N2CCN(Cc3cc(F)c(C(=O)NS(=O)(=O)C4CC4)cc3Cl)CC2)ccc1Cl [crystal form E-3] next 99.78

---

Answer each item with its documented RRT (%) 1.05.
# Procedure details: Stability experiment (storage of crystal forms, HPLC)
# Assay type: physicochemical
# Condition summary: 60° C. 7 d
Unit % implied. Number only.

Which RRT (%) 1.05 value belongs to Cc1cc(N2CCN(Cc3cc(F)c(C(=O)NS(=O)(=O)C4CC4)cc3Cl)CC2)ccc1Cl [crystal form D] ? 0.03

Query Cc1cc(N2CCN(Cc3cc(F)c(C(=O)NS(=O)(=O)C4CC4)cc3Cl)CC2)ccc1Cl [crystal form F] next 0.04

Query Cc1cc(N2CCN(Cc3cc(F)c(C(=O)NS(=O)(=O)C4CC4)cc3Cl)CC2)ccc1Cl [crystal form A] next 0.02

Query Cc1cc(N2CCN(Cc3cc(F)c(C(=O)NS(=O)(=O)C4CC4)cc3Cl)CC2)ccc1Cl [crystal form E-3] next 0.06

---

# Procedure details: Stability experiment (storage of crystal forms, HPLC)
# Assay type: physicochemical
# Condition summary: 60° C. 7 d
Measured property: Total impurities (%)
Unit % implied. Number only.

Which Total impurities (%) value belongs to Cc1cc(N2CCN(Cc3cc(F)c(C(=O)NS(=O)(=O)C4CC4)cc3Cl)CC2)ccc1Cl [crystal form F] ? 0.13

Query Cc1cc(N2CCN(Cc3cc(F)c(C(=O)NS(=O)(=O)C4CC4)cc3Cl)CC2)ccc1Cl [crystal form E-3] next 0.22

Query Cc1cc(N2CCN(Cc3cc(F)c(C(=O)NS(=O)(=O)C4CC4)cc3Cl)CC2)ccc1Cl [crystal form A] next 0.16

Query Cc1cc(N2CCN(Cc3cc(F)c(C(=O)NS(=O)(=O)C4CC4)cc3Cl)CC2)ccc1Cl [crystal form D] next 0.11

---

# Procedure details: Stability experiment (storage of crystal forms, HPLC)
# Type: physicochemical
# Condition summary: 40° C. 75% RH 14 d
Measured property: Content (%)
Unit % implied. Number only.

Which Content (%) value belongs to Cc1cc(N2CCN(Cc3cc(F)c(C(=O)NS(=O)(=O)C4CC4)cc3Cl)CC2)ccc1Cl [crystal form A] ? 99.8

Query Cc1cc(N2CCN(Cc3cc(F)c(C(=O)NS(=O)(=O)C4CC4)cc3Cl)CC2)ccc1Cl [crystal form E-3] next 106.4

Query Cc1cc(N2CCN(Cc3cc(F)c(C(=O)NS(=O)(=O)C4CC4)cc3Cl)CC2)ccc1Cl [crystal form D] next 100.2

Query Cc1cc(N2CCN(Cc3cc(F)c(C(=O)NS(=O)(=O)C4CC4)cc3Cl)CC2)ccc1Cl [crystal form F] next 98.4

---

# Subject of test: hERG potassium ion channel (Homo sapiens, UniProt Q12809)
# Construct: host or cells: CHO (CHO hERG, passage P15)
# Sequence (Q12809 whole entry): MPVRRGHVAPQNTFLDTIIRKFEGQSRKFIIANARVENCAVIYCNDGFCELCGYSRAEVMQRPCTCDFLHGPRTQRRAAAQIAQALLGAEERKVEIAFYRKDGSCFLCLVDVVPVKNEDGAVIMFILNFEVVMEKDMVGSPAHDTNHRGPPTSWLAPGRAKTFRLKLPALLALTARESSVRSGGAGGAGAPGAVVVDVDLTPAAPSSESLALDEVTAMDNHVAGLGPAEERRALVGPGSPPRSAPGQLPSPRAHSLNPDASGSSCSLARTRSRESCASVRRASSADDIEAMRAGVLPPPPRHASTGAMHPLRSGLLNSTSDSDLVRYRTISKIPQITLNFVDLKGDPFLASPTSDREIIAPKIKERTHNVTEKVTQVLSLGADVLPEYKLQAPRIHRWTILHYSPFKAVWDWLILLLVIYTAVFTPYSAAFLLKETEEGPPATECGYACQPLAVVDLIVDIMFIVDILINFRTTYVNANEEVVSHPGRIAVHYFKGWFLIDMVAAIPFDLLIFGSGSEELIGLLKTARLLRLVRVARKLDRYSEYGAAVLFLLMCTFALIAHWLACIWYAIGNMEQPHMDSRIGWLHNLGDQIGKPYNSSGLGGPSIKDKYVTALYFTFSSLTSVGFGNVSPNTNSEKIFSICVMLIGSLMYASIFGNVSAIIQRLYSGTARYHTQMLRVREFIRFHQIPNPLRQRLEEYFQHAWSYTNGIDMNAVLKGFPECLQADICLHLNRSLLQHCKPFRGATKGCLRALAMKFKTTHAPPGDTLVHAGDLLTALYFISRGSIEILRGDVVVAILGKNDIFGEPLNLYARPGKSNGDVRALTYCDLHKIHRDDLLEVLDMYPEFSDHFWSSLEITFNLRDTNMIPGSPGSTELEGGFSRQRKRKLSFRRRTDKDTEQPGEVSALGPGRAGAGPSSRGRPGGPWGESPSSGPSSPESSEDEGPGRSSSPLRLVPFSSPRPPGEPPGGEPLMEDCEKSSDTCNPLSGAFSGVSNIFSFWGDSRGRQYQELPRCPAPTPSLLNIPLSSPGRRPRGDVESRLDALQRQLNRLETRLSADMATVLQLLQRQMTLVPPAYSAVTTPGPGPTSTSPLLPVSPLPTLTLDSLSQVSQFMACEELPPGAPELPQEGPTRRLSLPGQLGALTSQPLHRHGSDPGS
# Procedure details: Effect on the hERG potassium ion channel (CHO hERG cells, manual patch clamp)
# Assay type: cell-based
# Condition summary: read-out: hERG inhibitory concentration IC50
# Experimental: 2.1.1 Cells used in this experiment are CHO cell lines (supplied by Sophion Bioscience, Denmark) which are hERG cDNA transfectant and stably express hERG channels, cell progeny is P15. […] The test data were analyzed by the data analysis software provided by HEKA Patchmaster (V2x73.2), Microsoft Excel and Graphpad Prism 5.0.
Measured property: IC50

Which IC50 value belongs to Cc1cc(N2CCN(Cc3cc(F)c(C(=O)NS(=O)(=O)C4CC4)cc3Cl)CC2)ccc1Cl [the free base of formula X compound] ? > 10 µM

---

# Subject of test: hNav1.7 (Homo sapiens)
# Sequence (Q15858 whole entry): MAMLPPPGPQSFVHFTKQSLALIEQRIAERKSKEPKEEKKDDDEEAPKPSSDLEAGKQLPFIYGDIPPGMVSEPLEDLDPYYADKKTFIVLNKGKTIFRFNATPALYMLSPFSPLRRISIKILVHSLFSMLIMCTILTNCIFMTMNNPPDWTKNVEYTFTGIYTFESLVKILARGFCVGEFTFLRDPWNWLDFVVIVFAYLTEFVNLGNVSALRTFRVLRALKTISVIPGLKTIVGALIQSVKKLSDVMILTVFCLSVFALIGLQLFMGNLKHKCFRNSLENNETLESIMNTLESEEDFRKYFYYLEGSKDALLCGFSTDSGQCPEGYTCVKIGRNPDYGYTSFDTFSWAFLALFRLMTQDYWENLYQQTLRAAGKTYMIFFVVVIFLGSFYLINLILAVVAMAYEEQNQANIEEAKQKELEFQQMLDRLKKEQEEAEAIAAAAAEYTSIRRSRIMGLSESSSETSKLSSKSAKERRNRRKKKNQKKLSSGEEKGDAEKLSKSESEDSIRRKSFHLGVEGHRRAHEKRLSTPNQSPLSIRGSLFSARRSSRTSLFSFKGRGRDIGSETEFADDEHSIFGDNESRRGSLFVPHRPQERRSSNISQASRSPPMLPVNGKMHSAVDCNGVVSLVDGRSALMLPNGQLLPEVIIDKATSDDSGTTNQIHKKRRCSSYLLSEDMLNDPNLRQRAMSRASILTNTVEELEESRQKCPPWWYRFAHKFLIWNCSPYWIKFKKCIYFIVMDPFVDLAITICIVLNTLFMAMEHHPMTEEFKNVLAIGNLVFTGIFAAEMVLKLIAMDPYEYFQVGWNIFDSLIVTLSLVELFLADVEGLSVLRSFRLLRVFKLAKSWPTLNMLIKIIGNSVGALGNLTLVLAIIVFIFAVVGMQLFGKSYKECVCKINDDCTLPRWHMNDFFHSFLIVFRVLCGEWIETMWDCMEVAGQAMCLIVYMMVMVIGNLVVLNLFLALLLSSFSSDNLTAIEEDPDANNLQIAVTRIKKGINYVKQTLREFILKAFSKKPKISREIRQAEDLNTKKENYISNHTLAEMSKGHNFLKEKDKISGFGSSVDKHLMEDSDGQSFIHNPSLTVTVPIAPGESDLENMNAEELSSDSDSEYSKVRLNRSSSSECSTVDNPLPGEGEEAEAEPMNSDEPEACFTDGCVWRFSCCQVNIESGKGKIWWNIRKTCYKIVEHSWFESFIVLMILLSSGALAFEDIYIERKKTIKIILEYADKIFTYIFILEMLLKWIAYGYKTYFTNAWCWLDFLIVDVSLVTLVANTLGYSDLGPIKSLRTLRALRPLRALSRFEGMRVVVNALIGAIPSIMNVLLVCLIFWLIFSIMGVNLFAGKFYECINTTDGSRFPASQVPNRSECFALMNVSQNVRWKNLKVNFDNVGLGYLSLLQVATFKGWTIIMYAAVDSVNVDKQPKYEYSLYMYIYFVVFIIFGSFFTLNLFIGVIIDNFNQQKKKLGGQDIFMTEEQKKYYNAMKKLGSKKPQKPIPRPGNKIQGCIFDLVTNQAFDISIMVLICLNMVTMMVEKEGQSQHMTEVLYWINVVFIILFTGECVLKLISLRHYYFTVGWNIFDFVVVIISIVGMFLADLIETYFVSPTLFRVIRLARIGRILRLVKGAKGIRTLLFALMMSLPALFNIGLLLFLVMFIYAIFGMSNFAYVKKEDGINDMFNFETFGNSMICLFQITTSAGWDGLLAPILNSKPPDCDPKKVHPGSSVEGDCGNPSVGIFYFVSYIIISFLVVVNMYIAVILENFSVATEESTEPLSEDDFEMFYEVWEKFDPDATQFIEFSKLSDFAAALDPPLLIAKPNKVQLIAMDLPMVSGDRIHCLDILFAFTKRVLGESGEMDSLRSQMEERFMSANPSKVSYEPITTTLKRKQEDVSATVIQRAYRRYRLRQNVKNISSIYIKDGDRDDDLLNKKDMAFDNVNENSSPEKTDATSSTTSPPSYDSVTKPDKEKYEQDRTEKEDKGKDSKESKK
# Procedure details: Manual patch clamp experiment of hNav1.7 channel (CHO-hNav1.7 stable cell line)
# Assay type: cell-based
# Condition summary: read-out: Inhibition of Nav1.7, 1000 nM(%)
Measured property: inhibition at 1 µM
Form field: result (number plus unit)

Which inhibition at 1 µM value belongs to Cc1cc(N2CCN(Cc3cc(F)c(C(=O)NS(=O)(=O)C4CC4)cc3Cl)CC2)ccc1Cl [the free base of formula X compound] ? 97.7%

Query CS(=O)(=O)NC(=O)c1cc(C2CC2)c(CN2CCN(Cc3ccc(Cl)c(Cl)c3)CC2)cc1F [C2] next 64%

Query O=C(NS(=O)(=O)C1CC1)c1cc(C2CC2)c(CN2CCN(Cc3cc(Cl)cc(Cl)c3)CC2)cc1F [C1] next 64.8%

Query O=C(NS(=O)(=O)C1CC1)c1cc(Cl)c(CN2CCN(Cc3ccc(Cl)cc3)CC2)cc1F [C6] next 67.2%

---

# Procedure details: Stability experiment (storage of crystal forms, HPLC)
# Format: physicochemical
# Condition summary: 40° C. 75% RH 14 d
Answer each item with its documented RRT (%) 1.05.
Unit % implied. Number only.

Which RRT (%) 1.05 value belongs to Cc1cc(N2CCN(Cc3cc(F)c(C(=O)NS(=O)(=O)C4CC4)cc3Cl)CC2)ccc1Cl [crystal form F] ? 0.04

Query Cc1cc(N2CCN(Cc3cc(F)c(C(=O)NS(=O)(=O)C4CC4)cc3Cl)CC2)ccc1Cl [crystal form A] next 0.02

Query Cc1cc(N2CCN(Cc3cc(F)c(C(=O)NS(=O)(=O)C4CC4)cc3Cl)CC2)ccc1Cl [crystal form E-3] next 0.04

Query Cc1cc(N2CCN(Cc3cc(F)c(C(=O)NS(=O)(=O)C4CC4)cc3Cl)CC2)ccc1Cl [crystal form D] next 0.03

---

# Procedure details: Solubility experiment
# Format: physicochemical
# Condition summary: 0.1M HCl, room temperature
Answer each item with its documented Solubility (mg/mL) 0.1M HCl.
Unit mg/mL implied. Number only.

Which Solubility (mg/mL) 0.1M HCl value belongs to Cc1cc(N2CCN(Cc3cc(F)c(C(=O)NS(=O)(=O)C4CC4)cc3Cl)CC2)ccc1Cl [crystal form F] ? 0.017

Query Cc1cc(N2CCN(Cc3cc(F)c(C(=O)NS(=O)(=O)C4CC4)cc3Cl)CC2)ccc1Cl [crystal form D] next 0.018

Query Cc1cc(N2CCN(Cc3cc(F)c(C(=O)NS(=O)(=O)C4CC4)cc3Cl)CC2)ccc1Cl [crystal form E-1] next 0.019

Query Cc1cc(N2CCN(Cc3cc(F)c(C(=O)NS(=O)(=O)C4CC4)cc3Cl)CC2)ccc1Cl [crystal form E-3] next 0.016

Query Cc1cc(N2CCN(Cc3cc(F)c(C(=O)NS(=O)(=O)C4CC4)cc3Cl)CC2)ccc1Cl [crystal form A] next 0.011

Origin of the recorded values: patent US10947202B2
